details: [M+2Na-H]+; instrument: DT; stepped-field
MEASURED_PARAMETER: collision cross section (N2) (Å²)

Request: Data request, read-out collision cross section (N2), for CCCC/C=C\CCCCCCCC(=O)O[C@H](COCCCCCCCCCCCCCCCCCC)COP(=O)(O)OCCN [PE(o32:01)]
Response: 268.35

Request: Fill in: collision cross section (N2) of CCCCCCCCCCC/C=C\CCCCC(=O)O[C@H](COC(=O)CCCCCCCCCCCCCCCCC)COP(=O)([O-])OCC[N+](C)(C)C [PC(36:01)] is ___
Response: 292.02

Request: Field request: collision cross section (N2) | item: CCCCC/C=C\C/C=C\C/C=C\C/C=C\CCCCCC(=O)OC[C@H](COP(=O)(O)OC[C@H](N)C(=O)O)OC(=O)CCCCCCCCC/C=C\CCCCCCCCCC [PS(44:05)]
Response: 306.87

Request: Report collision cross section (N2) for CC/C=C\C/C=C\C/C=C\C/C=C\C/C=C\C/C=C\CCC(=O)O[C@H](COC(=O)CCCCCCCCC/C=C\CCCCCCCC)COP(=O)(O)OC[C@H](N)C(=O)O [PS(42:07)] please.
Response: 296.35

Request: So what does the record say about collision cross section (N2) for CCCCC/C=C\C/C=C\CCCCCCCCCC(=O)O[C@H](COC(=O)CCCCCCC/C=C\CCCCCC)COP(=O)(O)OCCN [PE(36:03)] ?
Response: 279.42

Request: Which measured collision cross section (N2) value corresponds to CCCCC/C=C\C/C=C\C/C=C\C/C=C\CCCC(=O)O[C@H](COCCCCCCCCCCCCCCCC)COP(=O)(O)OCCN [PE(o36:04)] ?
Response: 278.13
